Molecular target: acetylcholine esterase (Homo sapiens)
Assay: biochemical
Details: read-out: IC 50 for acetylcholine esterase inhibition
met if IC50 is below 30 nM. not met if not; exact matches included in not met.

Query :: Dear reviewer, please state whether CN(C)C(=O)Oc1cccc2c1CC[C@H]1[C@@H]2CCN1CCCC1CCCC1 (racemic) has IC50 strictly beneath 30 nM.
Result :: met

Query :: Dear reviewer, please state whether CN(C)C(=O)Oc1cccc2c1CC[C@H]1[C@@H]2CCN1CCCCC(=O)c1ccccc1 (racemic) has IC50 strictly beneath 30 nM.
Result :: not met

Query :: Dear reviewer, please state whether CN(C)C(=O)Oc1cccc2c1CC[C@H]1[C@@H]2CCN1CCc1ccccc1 (racemic) has IC50 strictly beneath 30 nM.
Result :: not met

Query :: Dear reviewer, please state whether CN(C)C(=O)Oc1cccc2c1CC[C@H]1[C@@H]2CCN1CCCCCCN1Cc2ccccc2C1=O (racemic) has IC50 strictly beneath 30 nM.
Result :: met

Query :: Dear reviewer, please state whether CC(C)CCN1CC[C@@H]2c3cccc(OC(=O)N(C)C)c3CC[C@@H]21 (racemic) has IC50 strictly beneath 30 nM.
Result :: not met

Query :: Dear reviewer, please state whether CCN(C)C(=O)Oc1cccc2c1CC[C@H]1[C@@H]2CCN1CCC1CCCCC1 (single isomer, unassigned) has IC50 strictly beneath 30 nM.
Result :: met

Query :: Dear reviewer, please state whether CN(C)C(=O)Oc1cccc2c1CC[C@@H]1[C@H]2CCN1CCCCCNC(=O)c1ccccc1 (relative stereo) has IC50 strictly beneath 30 nM.
Result :: met

====

Target: acetylcholine esterase (Homo sapiens, UniProt P22303)
Sequence (P22303 32-614): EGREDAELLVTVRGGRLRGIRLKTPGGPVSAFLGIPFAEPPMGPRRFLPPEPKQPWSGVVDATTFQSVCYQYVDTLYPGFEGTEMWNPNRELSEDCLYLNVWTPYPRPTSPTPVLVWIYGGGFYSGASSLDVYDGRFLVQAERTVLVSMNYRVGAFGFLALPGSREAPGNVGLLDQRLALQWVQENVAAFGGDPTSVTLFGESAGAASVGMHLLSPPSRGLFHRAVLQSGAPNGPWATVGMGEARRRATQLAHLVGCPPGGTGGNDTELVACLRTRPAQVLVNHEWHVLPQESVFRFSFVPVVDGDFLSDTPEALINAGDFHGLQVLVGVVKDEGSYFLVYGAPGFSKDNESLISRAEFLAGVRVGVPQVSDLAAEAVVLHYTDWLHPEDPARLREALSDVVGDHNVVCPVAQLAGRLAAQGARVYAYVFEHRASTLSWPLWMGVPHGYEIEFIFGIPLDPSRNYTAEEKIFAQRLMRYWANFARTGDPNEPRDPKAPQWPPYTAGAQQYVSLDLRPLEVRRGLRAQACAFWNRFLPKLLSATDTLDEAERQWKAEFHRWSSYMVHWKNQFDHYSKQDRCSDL
Test: biochemical
Conditions: read-out: IC 50 for acetylcholine esterase inhibition
Assignment: determine reported pIC50 for the given compounds.
Schema: pIC50 number; meaning minus log10 of the concentration expressed in molar units.

Entry CN(C)C(=O)Oc1cccc2c1CC[C@@H]1[C@H]2CCN1CCCCCCN (relative stereo) — recorded pIC50 = 8.10

Entry CN(C)C(=O)Oc1cccc2c1CC[C@H]1[C@H]2CCN1CCC1CCCCC1 (single isomer, unassigned) — recorded pIC50 = 7.66

Entry CN(C)C(=O)Oc1cccc2c1CC[C@@H]1[C@H]2CCN1CCCCCN (relative stereo) — recorded pIC50 = 6.95

Entry CN(C)C(=O)Oc1cccc2c1CC[C@H]1[C@@H]2CCN1CCCCCN1C(=O)c2ccccc2C1=O (racemic) — recorded pIC50 = 8.57

====

Assignment: determine reported LLD (lowest lethal dose) for the given molecules.
Tested on: rat
Test: Toxicity, lowest lethal dose (LLD), rat
Details: sc rat
Structures can show the parent of a compound that is named as a salt.
Provide the reading as a plain figure in mg/kg.

Entry CN(C)C(=O)Oc1cccc2c1CC[C@H]1[C@@H]2CCN1CCC1CCCCC1.Cl (single isomer, unassigned) [A] — recorded LLD (lowest lethal dose) = 30

Entry CCCN1C[C@@H](C)[C@@H]2c3cccc(OC(=O)N(C)C)c3CC[C@@H]21 (relative stereo) [H] — recorded LLD (lowest lethal dose) = 100

Entry CN(C)C(=O)Oc1cccc2c1CC[C@H]1[C@@H]2CCN1CCN1CCOCC1.Cl.Cl (racemic) [F] — recorded LLD (lowest lethal dose) = 30

Entry CN(C)C(=O)Oc1cccc2c1CC[C@H]1[C@@H]2CCN1CCC1CCCCC1 (single isomer, unassigned) [B, hydrochloride] — recorded LLD (lowest lethal dose) = 30

Entry CN(C)C(=O)Oc1cccc2c1CC[C@H]1[C@@H]2CCN1CCCCCCN1C(=O)c2ccccc2C1=O.Cl (racemic) [E] — recorded LLD (lowest lethal dose) = 10

FYI, the data here is from patent US5318967A.
